Ref: the supplement of paper PMC10567573

Reported protein stability index by item:
B1: PPFIA4 (parent)
chain: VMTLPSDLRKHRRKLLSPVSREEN

variants of: B1; experiment: protein stability index of a GFP-peptide fusion (GPS, HEK-293T) (PSI 1-6); higher = more stable; settings: c terminus: a fixed tail appended;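 note: lentivirally expressed fusions sorted by FACS into six bins by GFP to DsRed ratio, PSI derived from sequencing read proportions per bin multiplied by bin number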
Write the value as a bare number.

So, R12T ? Its protein stability index was 4.21
